Sourced from patent US20190359693A1

# TARGET_SYSTEM: HA of H7N3 A/NIBRG/60 (A/mallard/NL/12/00) (influenza A virus)
# PROTOCOL: cell-based or functional assay
MEASURED_ENDPOINT: VNA titer

BINDER: SD1071 (VHH) VHH: EVQLVESGGGLVQTGESLRLSCAFSGFTYSTYWMYWVRQGPEKGLKWVSSTNAAGTVTYYAANVRDRFTASKDNAKNTLYLQMNRLKPEDTGLYYCASKDGLIVAATLDDYDYRGQGTQVTVSS
ENDPOINT_VALUE: > 1000 nM

Could you now look at the following binder, please?
Request: What value of measured VNA titer is listed for SD1045 (VHH) VHH: EVQLVESGGGLVQAGGSLRLSCAASGSSFSINVMGWYRQAPGKQREMVATITYGGSTNYVDSVKGRFTISRDNAKNTVYLQMNSLKPEDTAVYYCNSRLAQINYWGQGTQVTVSS ?
Result: > 1000 nM
